- protocol_text: Volume of distribution at steady state in Beagle dog at 2 umol/kg, iv
- Format: ADME, Canis lupus familiaris
- condition: in vivo, read-out: Vdss
endpoint_label: Vd (L/kg)

Cc1cc(-c2ccc(C(=O)[C@@H]3CCCC[C@H]3C(=O)Nc3cnn(C)c3S(N)(=O)=O)cc2)[nH]n1
1.3
Cc1cc(-c2ccc(C(=O)[C@@H]3CCCC[C@H]3C(=O)Nc3cnn4c3C(=O)NCC4)cc2)[nH]n1
1.1

----------
- assayed_system: Cytochrome P450 1A2 (Homo sapiens)
- Sequence (P05177 whole entry): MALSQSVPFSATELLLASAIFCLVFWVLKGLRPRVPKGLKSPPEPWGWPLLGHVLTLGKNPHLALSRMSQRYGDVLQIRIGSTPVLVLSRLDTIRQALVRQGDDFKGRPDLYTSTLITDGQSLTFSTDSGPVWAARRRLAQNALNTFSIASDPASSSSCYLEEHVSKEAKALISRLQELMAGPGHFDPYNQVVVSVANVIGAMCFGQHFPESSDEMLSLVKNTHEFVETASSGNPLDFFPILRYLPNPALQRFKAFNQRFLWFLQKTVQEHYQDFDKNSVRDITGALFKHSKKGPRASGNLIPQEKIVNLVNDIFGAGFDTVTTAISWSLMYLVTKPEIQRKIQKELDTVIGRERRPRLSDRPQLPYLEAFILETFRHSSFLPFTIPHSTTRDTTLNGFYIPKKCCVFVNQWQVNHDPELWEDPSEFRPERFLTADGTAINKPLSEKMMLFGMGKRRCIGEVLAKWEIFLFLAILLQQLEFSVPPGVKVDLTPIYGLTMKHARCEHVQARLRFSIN
- protocol_text: Inhibition of recombinant human CYP1A2 expressed in Escherichia coli using CEC as substrate by fluorescence assay
Reported IC50 is given for each of the following compounds.

Cc1cc(-c2ccc(C(=O)[C@@H]3CCCC[C@H]3C(=O)Nc3cnn(C)c3S(N)(=O)=O)cc2)[nH]n1
> 20 µM

# `Cc1cc(-c2ccc(C(=O)[C@@H]3CCCC[C@H]3C(=O)Nc3cnn4c3C(=O)NCC4)cc2)[nH]n1` with Cytochrome P450 1A2 (Homo sapiens): IC50 is > 20 µM

# `Cc1cc(-c2ccc(C(=O)[C@@H]3CCCC[C@H]3C(=O)Nc3cnn(C)c3C(=O)NOC(C)(C)C)cc2)[nH]n1` with Cytochrome P450 1A2 (Homo sapiens): IC50 is > 20 µM
